tested on: HSP90B1; design: species or system human, MV4-11 + K-562 + COLO205 + SK-N-BE2 + OVCAR-8; conditions: read-out: apparent Kd; compound concentrations:100 nM and 1000 nM (sheet 'Samples'); n = 1
assay_readout: potency estimated from few doses (nM)
Please state the figure in nM; there is no need to write the unit.

Sample answers from the record:
State the recorded potency estimated from few doses for this entry: [2H]C([2H])(c1cccc(C(F)(F)F)c1C)n1ccn2c(=O)cc(N3CCOCC3)nc12 [GSK2289044B]
112

State the recorded potency estimated from few doses for this entry: FC(F)(F)c1cc(Nc2nccc(-c3c(-c4ccc(Cl)cc4)nn4ncccc34)n2)ccc1Cl [GW829351X]
114

Field: next molecule
State the recorded potency estimated from few doses for this entry: CCn1c(-c2nonc2N)nc2c(C#CC(C)(C)O)nc(OCCN)cc21.CCn1c(-c2nonc2N)nc2c(C#CC(C)(C)O)nc(OCCN)cc21.Cl.Cl [GSK902056A]
769
